Cited source: ChEMBL document CHEMBL1201862

system_tested: Streptokinase A (Streptococcus pyogenes serotype M1)
Sequence (P10520 whole entry): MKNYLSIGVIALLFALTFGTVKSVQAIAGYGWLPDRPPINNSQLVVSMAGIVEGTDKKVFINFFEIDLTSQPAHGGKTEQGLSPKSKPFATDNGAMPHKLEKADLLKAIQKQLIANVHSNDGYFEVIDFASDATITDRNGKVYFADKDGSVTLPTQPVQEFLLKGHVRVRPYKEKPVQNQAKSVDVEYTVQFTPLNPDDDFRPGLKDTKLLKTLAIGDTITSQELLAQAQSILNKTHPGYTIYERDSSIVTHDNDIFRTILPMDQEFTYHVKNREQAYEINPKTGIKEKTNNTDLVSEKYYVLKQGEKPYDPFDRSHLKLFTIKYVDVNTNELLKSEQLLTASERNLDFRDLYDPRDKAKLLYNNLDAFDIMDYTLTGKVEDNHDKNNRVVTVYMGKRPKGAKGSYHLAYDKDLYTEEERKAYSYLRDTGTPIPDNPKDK
measurement_protocol: viability-normalized secreted streptokinase activity reduction – plasminogen activation absorbance, OD405, dose response (AID 1914);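 also: secreted streptokinase activity via plasminogen activation per viability signal from cell pellet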
Type: functional, Streptococcus pyogenes M1 GAS
Active and inactive are the calls of the source.
assay_endpoint: EC50

Solved cases below.
Cc1ccc(C)c2sc(N3CCN(C(=O)c4ccc([N+](=O)[O-])o4)CC3)nc12 :: 2.59 µM (active)
COc1cc(C)ccc1NC(=O)Cc1csc(NC(=O)Nc2ccccc2OC)n1 :: 104 µM (active)
Cc1cc(C(C)(C)C)cc(C)c1COC(=O)c1cccnc1 :: > 150 µM (not active)

// molecule CCCn1cc(CN2CCC(n3nccc3NC(=O)c3ccccc3)CC2)c(C)n1 , assay Streptokinase A (Streptococcus pyogenes serotype M1), EC50 value: > 150 µM (not active)

Noted EC50 for Cc1nn(-c2ccccc2)c(Cl)c1C1C(C#N)=C(N)OC2=C1C(=O)CC(C)(C)C2 (stereo not given) , tested on Streptokinase A (Streptococcus pyogenes serotype M1): > 150 µM (not active)

EC50 value, target or system Streptokinase A (Streptococcus pyogenes serotype M1), for N#Cc1c(NC(=S)NC(=O)C2CCCC2)sc2c1CCCCC2 : 2.9 µM (active)

====

system_tested: Neurotensin receptor type 1 (Homo sapiens);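 also: Image-based confirmatory dose-response assay measuring agonist activity at NTR1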;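 also: NTR1-expressing U2OS osteosarcoma cells imaged for beta-arrestin GFP spot formation; agonist potency where compounds increase beta-arrestin recruitment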
Sequence (P30989 whole entry): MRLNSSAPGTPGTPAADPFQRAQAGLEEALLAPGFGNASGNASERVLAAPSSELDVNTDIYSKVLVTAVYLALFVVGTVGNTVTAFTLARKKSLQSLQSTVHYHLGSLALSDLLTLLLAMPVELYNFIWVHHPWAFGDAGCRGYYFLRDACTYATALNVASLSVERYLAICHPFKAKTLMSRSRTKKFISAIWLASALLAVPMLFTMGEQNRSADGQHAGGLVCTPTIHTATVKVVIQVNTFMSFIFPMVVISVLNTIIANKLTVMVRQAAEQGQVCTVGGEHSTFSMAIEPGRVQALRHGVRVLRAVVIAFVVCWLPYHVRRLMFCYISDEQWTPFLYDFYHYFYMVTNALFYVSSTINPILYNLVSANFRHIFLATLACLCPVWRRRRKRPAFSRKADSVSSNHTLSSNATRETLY
Type: functional
Active and inactive are the calls of the source.
Returns: one label drawn from True for active, False for inactive

These recorded examples may help you get a feel for the data.
C[C@H](NC(=O)c1[nH]cnc1C(=O)NCc1ccc(CNC(=O)OC(C)(C)C)cc1)C(=O)OCc1ccccc1 :: True
Fc1ccc(-n2nnnc2-c2cnc(-c3cccs3)nc2C(F)(F)F)cc1 :: True
O=C1NC(=O)C(=Cc2ccc(SC3CCCCC3)o2)C(=O)N1 :: True

From here, focus on the item given below.
Lab log entry: CCOc1cc(/C=C2/C(=O)ON=C2C)ccc1OCc1ccccc1 — outcome as called in the assay?
False

====

Measured IC50, listed per entry for reference.
system_tested: Prothrombin (Bos taurus)
measurement_protocol: thrombin protease inhibitors – biochemical, fluorescence polarization, uHTS hits, dose response (AID 602369)
Format: functional
The source made the active and inactive calls.

O=C(/C=C/c1ccco1)Nc1cccc(C(=O)Nc2ccccc2C(=O)O)c1 :: 39.8 µM (active)
CCOc1cc(/C=C2\SC(=S)N(NC(=O)c3cccnc3)C2=O)ccc1O :: 35.7 µM (active)
O=C(N/N=C/c1cc([N+](=O)[O-])ccc1O)c1cc(-c2ccccc2)nc2ccccc12 :: 10.7 µM (active)

Okay, now this compound:
compound Cc1cc(C)c2c(N)c(C(=O)N/N=C/c3cccs3)sc2n1 , IC50 observed: 35.8 µM (active)

====

system_tested: UniProt:P33261
Sequence (P33261 whole entry): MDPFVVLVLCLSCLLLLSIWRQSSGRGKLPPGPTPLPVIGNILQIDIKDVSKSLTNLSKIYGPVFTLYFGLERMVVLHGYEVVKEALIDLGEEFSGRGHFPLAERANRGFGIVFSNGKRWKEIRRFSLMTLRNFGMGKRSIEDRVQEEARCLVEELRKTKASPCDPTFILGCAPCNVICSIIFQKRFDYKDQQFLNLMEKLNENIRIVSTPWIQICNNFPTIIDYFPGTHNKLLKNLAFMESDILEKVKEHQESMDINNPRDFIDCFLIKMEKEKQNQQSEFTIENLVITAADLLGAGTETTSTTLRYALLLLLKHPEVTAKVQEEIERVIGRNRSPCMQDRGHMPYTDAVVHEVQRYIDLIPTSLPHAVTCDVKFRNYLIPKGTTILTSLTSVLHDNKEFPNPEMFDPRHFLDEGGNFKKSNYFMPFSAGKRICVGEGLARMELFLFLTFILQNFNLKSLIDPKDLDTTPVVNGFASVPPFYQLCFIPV
measurement_protocol: Cytochrome panel assay with activity outcomes. Panel member name: p450-cyp2c19 Compounds with AC50 equal or less than 10 uM are considered active
Assay type: functional
condition_set: read-out: AC50
assay_endpoint: AC50

Cc1ccc(CNC(=O)[C@H]2C[C@@H]2[C@H](NP(=O)(c2ccccc2)c2ccccc2)c2ccccc2)c(F)c1F :: 0.0398 µM (inconclusive)
CCN1CCN(c2nc3ccccc3nc2C(C#N)C(=O)OC2CCCCC2)CC1 (stereo unspecified) :: 39.8 µM (inconclusive)
Cc1cc(C)n(C(=O)c2cc3c(s2)CCCC3)n1 :: 2.24 µM (inconclusive)
O=C(CCN1C(=O)C2C3C=CC(C3)C2C1=O)Nc1c(F)cccc1F (stereo unspecified) :: 39.8 µM (inconclusive)
CCOC(=O)c1[nH]c(C)c(C)c1C :: 17.8 µM (inconclusive)
COc1ccc(C(=O)Nn2cnc3ccccc3c2=O)c(OC)c1 :: 17.8 µM (inconclusive)
N#Cc1cccc(-c2ccc3ncnc(NC4CCNCC4)c3c2)c1 :: 25.1 µM (inconclusive)
CN1C(=O)C(C2c3ccccc3C(=O)N2Cc2ccc([N+](=O)[O-])cc2)C(=O)N(C)C1=O (stereo unspecified) :: 14.1 µM (inconclusive)

For record O=c1c(-c2cc(F)cc(F)c2)nc2cncnc2n1-c1ccccc1 the listed AC50 is 6.31 µM (inconclusive)
